- Test system: COLO 205 colon
- assayName: NCI tumour cell line growth inhibition, 48 h
TGI: recorded values

Examples with answers:
compound	measurementTarget	TGI
COC(=O)CC(c1cn(S(=O)(=O)c2ccc(C)cc2)c2ccccc12)C1C[C@@H](C(=O)OC)N(C(=O)OC(C)(C)C)C1=O (stereo not given in full)	COLO 205 colon	86.6 µM
C=C(C[C@](O)(C(=O)/C=C/c1ccc(Cl)cc1)C(=O)OC)c1ccccc1	COLO 205 colon	4.36 µM
COc1ccc(C(=O)c2sc(N(C)C)nc2-c2ccccc2)cc1	COLO 205 colon	> 100 µM
CS(=O)(=O)c1ccc(-n2nc(C(F)(F)F)cc2OC2CCCC2)cc1	COLO 205 colon	81.7 µM

Now for the compound whose TGI we want.
Enquiry: Which TGI reading was recorded for the compound `O=C(CCN(C(=O)O)S(=O)(=O)c1ccc(NC(=O)c2ccccc2)cc1)NC1CCCCC1` ?
Return: > 100 µM

====

- Tested on: MDA-N
- assayName: NCI tumour cell line growth inhibition, 48 h
measuredParameter: log10 TGI (log10 of the value in µM)
Recorded TGI (log10, µM)

molecule	log10 TGI
O=C1C(Cl)=C(NCCN2CCOCC2)C(=O)c2ncccc21	-0.41

Enquiry: Which log10 TGI reading was recorded for the molecule `CCOC(=O)C1(Cc2ccccc2)C=CN(C(=O)c2ccccc2)C=C1` ?
Return: 1.81

Enquiry: Which log10 TGI reading was recorded for the molecule COC(=O)C1=C(O)C(C(=O)OC)[C@]2(O)[C@H](C(=O)OC)[C@H]1C[C@@H](c1ccc(Cl)cc1)[C@H]2C(=O)OC (stereo not given in full) ?
Return: 1.35

Enquiry: Which log10 TGI reading was recorded for the molecule COc1cc(/C=C2/SC(c3ccccc3)N(c3ccccc3Cl)C2=O)cc(OC)c1OC (stereo not given) ?
Return: 1.84

Enquiry: Which log10 TGI reading was recorded for the molecule Cc1ccc([N+](=O)[O-])cc1S(=O)(=O)Nc1ccc(C2=NN(c3ccc([N+](=O)[O-])cc3[N+](=O)[O-])C(c3cccs3)C2)cc1 (stereo not given) ?
Return: 1.50

====

TGI: recorded values
- Test system: MOLT-4 leukemia
- assayName: NCI tumour cell line growth inhibition, 48 h

Examples with answers:
molecule	measuredParameter	result
CCN(CCO)C(=O)C1(c2ccccc2)CCCCC1	TGI	> 10 µM
CC1OC(OC2C(OC(=O)[C@]34CCC(C)(C)CC3C3=CCC5[C@@]6(C)C[C@H](O)[C@H](OC7OC(CO)C(O)C(O)C7N)[C@@](C)(C(=O)O)C6CC[C@@]5(C)C3(C)CC4)OCC(O)C2O)C(O)C(O)C1OC1OCC(O)C(O)C1O (some centres undefined)	TGI	> 100 µM
Nc1c(-c2ccc(Cl)cc2)[n+]([O-])c2ccccc2[n+]1[O-]	TGI	> 100 µM
COc1ccc(C[C@@H](CO)NC2=C(C#N)CCC2)cc1	TGI	> 100 µM

Enquiry: Which TGI reading was recorded for the molecule `Cc1ccc(C(=O)NC(C)C)cc1-c1ccc(C(=O)NCC2CC2)cc1` ?
Return: > 25 µM

Enquiry: Which TGI reading was recorded for the molecule `CC/C=C\C[C@H](F)C/C=C1/C(=O)C=C[C@@H]1C/C=C\CCCC(=O)O` ?
Return: 12 µM

Enquiry: Which TGI reading was recorded for the molecule `O=c1cc(-c2ccccc2)oc2cc(OC/C(=N/O)c3ccccc3)ccc12` ?
Return: > 50 µM

Enquiry: Which TGI reading was recorded for the molecule `CCOC(=O)c1c(NC(=O)c2cccs2)sc2c1CCC2` ?
Return: > 100 µM

Enquiry: Which TGI reading was recorded for the molecule CC(=O)OCC1OC(NC(=S)N/N=C2\CC(c3ccccc3)Oc3ccccc32)C(OC(C)=O)C(OC(C)=O)C1OC(C)=O (centres undefined) ?
Return: > 100 µM
